Collected pKi values appear next to each entry.
system-name: Kappa-type opioid receptor (Homo sapiens)
Sequence (P41145 whole entry): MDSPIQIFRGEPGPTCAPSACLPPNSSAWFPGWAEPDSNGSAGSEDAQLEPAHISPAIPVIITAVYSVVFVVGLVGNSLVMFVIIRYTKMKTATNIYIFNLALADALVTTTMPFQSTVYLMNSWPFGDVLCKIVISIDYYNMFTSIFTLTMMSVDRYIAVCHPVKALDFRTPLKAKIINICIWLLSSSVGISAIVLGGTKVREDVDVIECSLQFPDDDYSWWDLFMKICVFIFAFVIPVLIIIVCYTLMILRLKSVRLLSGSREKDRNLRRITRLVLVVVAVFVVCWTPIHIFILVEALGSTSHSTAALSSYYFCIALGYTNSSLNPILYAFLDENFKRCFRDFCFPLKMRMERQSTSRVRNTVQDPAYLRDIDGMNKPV
protocol-summary: Displacement of [3H]-U69593 from human kappa opioid receptor expressed in CHO cells after 60 mins by scintillation counting analysis
Type: cell-based
Non-standard residues stand in square brackets, D forms with d. Residues, ends and D or L forms follow the SMILES beside them. *: point of attachment. βGlc = OC[C@H]1O[C@@H](*)[C@H](O)[C@@H](O)[C@@H]1O; Aib = CC(C)(N)C(=O)O; GABA = NCCCC(=O)O
API: returns pKi as number; meaning -log10 of concentration in mol/L.

These solved cases illustrate the format of a correct answer.
compound	system-name	pKi
CC(C)C[C@H](NC(=O)[C@H](CO[C@@H]1O[C@H](CO)[C@@H](O)[C@H](O)[C@H]1O)NC(=O)[C@H](CCCCN)NC(=O)[C@H](CC(C)C)NC(=O)[C@H](C)NC(=O)[C@H](CCCCN)NC(=O)[C@H](CCC(=O)O)NC(=O)C(C)(C)NC(=O)[C@H](CC(C)C)NC(=O)[C@H](CC(N)=O)NC(=O)CNC(=O)[C@H](CC(C)C)NC(=O)[C@H](Cc1ccccc1)NC(=O)CNC(=O)[C@@H](NC(=O)[C@@H](N)Cc1ccc(O)cc1)[C@@H](C)O)C(N)=O (H-YTGFLGNL[Aib]EKALKS(βGlc)L-NH2)	Kappa-type opioid receptor (Homo sapiens)	7.85
CC(C)C[C@H](NC(=O)[C@H](CO[C@@H]1O[C@H](CO)[C@@H](O)[C@H](O)[C@H]1O)NC(=O)CCCNC(=O)[C@H](CC(C)C)NC(=O)[C@H](Cc1ccccc1)NC(=O)CNC(=O)[C@@H](NC(=O)[C@@H](N)Cc1ccc(O)cc1)[C@@H](C)O)C(N)=O (H-YTGFL[GABA]S(βGlc)L-NH2)	Kappa-type opioid receptor (Homo sapiens)	7.15

Please find the next compound below.
Noted for CC(C)C[C@H](NC(=O)[C@H](CO[C@@H]1O[C@H](CO)[C@@H](O)[C@H](O)[C@H]1O)NC(=O)[C@H](CCCCN)NC(=O)[C@H](CC(C)C)NC(=O)[C@H](C)NC(=O)[C@H](CCCCN)NC(=O)[C@H](CCC(=O)O)NC(=O)C(C)(C)NC(=O)[C@H](CC(C)C)NC(=O)[C@H](CC(N)=O)NC(=O)CCCNC(=O)[C@H](CC(C)C)NC(=O)[C@H](Cc1ccccc1)NC(=O)CNC(=O)[C@@H](NC(=O)[C@@H](N)Cc1ccc(O)cc1)[C@@H](C)O)C(N)=O (H-YTGFL[GABA]NL[Aib]EKALKS(βGlc)L-NH2) : its pKi reads 7.96

Cited source for all entries: ChEMBL document CHEMBL3596173
